Data provenance is patent US7595329B2.

MEASURED_PROPERTY: melting point (°C)

CC(C)n1c(=O)n(C(=O)NCC2CCN(CC3(C(=O)O)CCCC3)CC2)c2ccccc21; 165
CC(C)n1c(=O)n(C(=O)NCC2CCN(CC3(C(=O)O)CCOCC3)CC2)c2ccccc21; 176
CC(C)n1c(=O)n(C(=O)NCC2CCN(CC3(C(=O)O)CC3)CC2)c2ccccc21.Cl; 206
CC(C)n1c(=O)n(C(=O)NCC2(O)CCN(CC3(C(=O)O)CCCCC3)CC2)c2ccccc21; 184
CC(C)n1c(=O)n(C(=O)NCC2CCN(CC3(C(=O)O)CCCCC3)CC2)c2ccccc21; 151
